# Measurement Description: Stability in rat plasma at 37 °C
# Format: in vitro ADME
# Assay Conditions: male, Sprague Dawley
Value Kind: half-life at 50 µg/mL

# Compound, Value Kind, Value
data = [
    ("Oc1ccc(/C=C/c2cc(O)cc(O)c2)cc1 [resveratrol, trans-3,5,4′-trihydroxystilbene]", "half-life at 50 µg/mL", "25 h"),
]

* * *

# Measurement Description: Plasma protein binding by ultracentrifugation/ultrafiltration
# Type: in vitro ADME, human
# Assay Conditions: human, human plasma, Plasma protein binding (mean), over 5, 12.5 and 25 µg/mL, 37 °C
Value Kind: fraction unbound at 30 min

# Compound, Value
rows = [
    ("Oc1ccc(/C=C/c2cc(O)cc(O)c2)cc1 [resveratrol, trans-3,5,4′-trihydroxystilbene]", 0.017),
]
